System: HIV-1 infection of TZM-bl cells
Test: HIV-1 infectivity enhancement assay, β-galactosidase luminescence
Assay type: cell-based
Conditions: input.xlsx of the Pattern-Analysis script; infectivity relative to EF-C (peptide 59 = 1.00)
assay.endpoint: infectivity
Lab note: record the figure alone, no unit after it.

Query string: Record lookup: for HIV-1 infection of TZM-bl cells, what infectivity belongs to CKIKQIINM [compound 3] ?
Result string: 0.50

Query string: Next substance up: KFKFQFW [compound 147]
Result string: 0.16

Query string: Next substance up: RGDCKFKFQF [compound 145]
Result string: 0.15

Query string: Next substance up: HHHHKIKIKIKIWWWW [compound 140]
Result string: 0.38

Query string: Next substance up: HHHHKIKIKIKIYYYY [compound 144]
Result string: 0.68

Query string: Next substance up: RGDKIKIQIC [compound 103]
Result string: 0.83

Query string: Next substance up: KFKQFFINMWQ [compound 158]
Result string: 0.92

Query string: Next substance up: KLKQLL [compound 95]
Result string: 0.00739

Query string: Next substance up: RGDSKIKIQIC [compound 126]
Result string: 0.60

Query string: Next substance up: RLRLTLC [compound 30]
Result string: 0.05

Query string: Next substance up: RGDKIKIQINM [compound 104]
Result string: 0.41

Query string: Next substance up: SISISRRI [compound 44]
Result string: 0.0283

Query string: Next substance up: CKIKIQINMW [compound 153]
Result string: 1.29

Query string: Next substance up: HHHHKAKAKAKAYYYY [compound 124]
Result string: 0.0131

Query string: Next substance up: KFKFEFEF [compound 106]
Result string: 0.0284

Query string: Next substance up: QCKIKQIINMWQ [compound 59]
Result string: 1.00

Query string: Next substance up: MKIKIQINM [compound 141]
Result string: 0.27

Query string: Next substance up: KVKVKVQV [compound 64]
Result string: 0.0173

Query string: Next substance up: RGDKIKIQI [compound 97]
Result string: 0.0157

====

Format: physicochemical
Conditions: ThT category; 1 if Rel. ThT >2
assay.endpoint: ThT Cat.

Query string: I have this substance here, MKFKFQF , and I need its recorded ThT Cat..
Result string: 0 (ThT-inactive (N-Fold <2))

Query string: Next substance up: QCKIKQIINMWQ [reference compound]
Result string: 1 (ThT. Cat is 1, if Rel. ThT >2)

Query string: Next substance up: FDPFDPFDP
Result string: 0 (ThT-inactive (N-Fold <2))

Query string: Next substance up: CKFKFQF
Result string: 1 (ThT. Cat is 1, if Rel. ThT >2)

Query string: Next substance up: NMWQKAKAQA
Result string: 1 (ThT. Cat is 1, if Rel. ThT >2)

Query string: Next substance up: CKIKIQIII
Result string: 1 (ThT. Cat is 1, if Rel. ThT >2)

Query string: Next substance up: NMWQKFKFQF
Result string: 0 (ThT-inactive (N-Fold <2))

Query string: Next substance up: KYKGAIIGNIK
Result string: 0 (ThT-inactive (N-Fold <2))

Query string: Next substance up: KFKFQFNMWQ
Result string: 1 (ThT. Cat is 1, if Rel. ThT >2)

Query string: Next substance up: KIKIQINMWWWQ
Result string: 0 (ThT-inactive (N-Fold <2))

Query string: Next substance up: KIKIQIMWNQ
Result string: 0 (ThT-inactive (N-Fold <2))

Query string: Next substance up: QCKFKQFFNM
Result string: 1 (ThT. Cat is 1, if Rel. ThT >2)

Query string: Next substance up: HRRHFRHKITKKK
Result string: 0 (ThT-inactive (N-Fold <2))

Query string: Next substance up: TKTLTKTL
Result string: 0 (ThT-inactive (N-Fold <2))

Query string: Next substance up: KIKIKIQINMWQ
Result string: 0 (ThT-inactive (N-Fold <2))

Query string: Next substance up: KAKQAANMWQ
Result string: 0 (ThT-inactive (N-Fold <2))

Query string: Next substance up: KFKFQFN
Result string: 0 (ThT-inactive (N-Fold <2))

Query string: Next substance up: CKIKQIINM
Result string: 1 (ThT. Cat is 1, if Rel. ThT >2)

Query string: Next substance up: MDQMDQMDQMDQMDQ
Result string: 0 (ThT-inactive (N-Fold <2))

Query string: Next substance up: KIKIQIMQWN
Result string: 0 (ThT-inactive (N-Fold <2))

Query string: Next substance up: QCKIKQIINM
Result string: 1 (ThT. Cat is 1, if Rel. ThT >2)

Query string: Next substance up: KNDKND
Result string: 0 (ThT-inactive (N-Fold <2))

Query string: Next substance up: KKFQKKFQ
Result string: 0 (ThT-inactive (N-Fold <2))

Source listed as paper PMC10447463.
